# ASSAYED TARGET: Luciferin 4-monooxygenase (Photinus pyralis) (UniProt P08659)
# Sequence (P08659 whole entry, looked up): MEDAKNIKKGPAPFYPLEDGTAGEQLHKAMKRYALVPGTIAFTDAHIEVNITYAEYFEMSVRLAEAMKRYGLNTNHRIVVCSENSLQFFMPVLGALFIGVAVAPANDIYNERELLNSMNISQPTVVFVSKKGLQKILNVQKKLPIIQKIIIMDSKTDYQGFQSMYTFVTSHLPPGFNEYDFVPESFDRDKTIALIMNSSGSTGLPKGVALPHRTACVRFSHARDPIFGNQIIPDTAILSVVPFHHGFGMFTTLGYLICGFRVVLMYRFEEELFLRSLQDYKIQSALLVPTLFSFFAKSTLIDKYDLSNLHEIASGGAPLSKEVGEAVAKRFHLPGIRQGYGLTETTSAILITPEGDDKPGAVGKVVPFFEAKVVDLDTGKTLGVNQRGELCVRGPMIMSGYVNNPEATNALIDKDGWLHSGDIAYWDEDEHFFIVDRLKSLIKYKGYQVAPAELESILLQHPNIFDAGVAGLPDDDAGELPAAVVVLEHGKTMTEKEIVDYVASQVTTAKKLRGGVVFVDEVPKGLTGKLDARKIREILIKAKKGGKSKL
# PROCEDURE SUMMARY: firefly luciferase enzyme inhibitors, primary screen, biochemical, luminescence, purified enzyme, 2006 set (AID 1141);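 further: cell-free assay with purified firefly luciferase at 100 ng per well in PBS; test concentration not given here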
# CONDITION LABEL: SteadyGlo luminescence, 30 min, higher = more signal, called active from +8 up or from −8 down
MEASURED QUANTITY: z-score
Lab note: jot the number down without any unit.

Which z-score reading was recorded for the compound COCCCNC(=O)[C@@]1(c2ccc([N+](=O)[O-])cc2)CC(=O)N(CC23CC4CC(CC(C4)C2)C3)[C@@H]1c1ccc(CO)cc1I ? 0.482

GET /values?readout=z-score&item= COc1ccc([Si](C)(C)[C@H]2[C@H](CC(=O)N3Cc4ccccc4C[C@H]3CO)O[C@@]3(C(=O)N(Cc4ccc(N5C(=O)c6cccc7cccc5c67)cc4)c4ccccc43)[C@@H]2C)cc1 0.0376

Item O=c1cccc(-c2ccc(F)cc2)o1 has what recorded z-score? 1.73

Entry C[C@]1(C(=O)O)c2ccccc2C(=O)N(Cc2ccc(OC(F)(F)F)cc2)[C@H]1c1ccc(CO)cc1 : reported z-score = ? 0.0795

----------
# PROCEDURE SUMMARY: E. coli growth modulation, two-sided OD650, primary screen, E. coli filamentation project, strain DRC41, 24 h (AID 1093);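 further: MC1000 strain lacking acrAB efflux and sulA so SOS filamentation is blocked; test concentration not given here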
# CONDITION LABEL: OD650, 24 h, higher = more signal, called active from +8 up or from −8 down
Kindly supply the reported z-score values for the records listed here.
# print the numeric value only

Returns the measured z-score for the input compound. Input: COc1ccc([Si](C)(C)[C@H]2[C@H](CCO)O[C@@]3(C(=O)N(Cc4ccccc4)c4ccc(N5C(=O)c6ccccc6Oc6ccccc65)cc43)[C@@H]2C)cc1 1.25

Which measured z-score value corresponds to C[C@@H]1ON(c2ccc(I)cc2)[C@H](c2ccc(OC(=O)OC(C)(C)C)cc2)[C@H]1C(=O)N1C(=O)OC[C@H]1Cc1ccccc1 ? 1.77

Fill in the blank: the reported z-score of CC(C)[Si]1(C(C)C)OCc2cc(-c3ccc(-c4ccc(Cl)c(Cl)c4)o3)nc(CCc3ccccc3)c21 is ____. 1.15

Entry under review: COC(=O)[C@@]1(Cc2ccccc2)[C@H]2c3cc(C(=O)N(C)C)n(CCn4cc([N+](=O)[O-])nc4C)c3C[C@H]2CN1C(=O)c1ccccc1 . Reported z-score? -0.592

What does the record list as z-score for O=C1c2ccccc2[C@](Cc2ccccc2I)(C(=O)NC2CC2)[C@H](c2ccc(CO)cc2)N1Cc1ccccc1C(F)(F)F ? -1.8

// z-score lookup, key: C=CCOC(=O)[C@H]1[C@@H]2C(=O)O[C@@H](c3ccccc3)[C@@H](c3ccccc3)N2[C@@H](c2ccc(OCCOC(=O)[C@H]3C[C@H]4C(=O)N[C@@H](CCCCNC(C)=O)C(=O)N4[C@H]3c3cccc(OCCO)c3)cc2)[C@]12C(=O)Nc1ccc(I)cc12 1.44

Fill blank: measured z-score of the compound [N-]=[N+]=NCc1ccccc1C[C@]1(C(=O)N2CCOCC2)COC(c2ccc(OCCCO)cc2)=N1 is ____. 3.3

Any idea what its z-score is? The compound is CCN(CC)c1ccc(N2CC=CC34O[C@@H]5C=CCCOC(=O)C5[C@H]3C(=O)N(CCO)[C@@H]4C2=O)cc1 (some centres not stated) 0.701

Quick check: z-score of C[C@]1(C(=O)NCC(F)(F)F)c2ccccc2C(=O)N(Cc2ccccc2)[C@H]1c1ccc(CO)cc1 ? 0.855

Returns the measured z-score for the input compound. Input: COc1cccc(/C=C(\C#N)C(=O)Nc2c(C)n(C)n(-c3ccccc3)c2=O)c1 -0.23

So what does the record say about z-score for COc1ccc([Si](C)(C)[C@@H]2[C@@H](CCn3cc([C@H](O)c4ccccc4)nn3)O[C@]3(C(=O)N(c4ccccc4)c4ccccc43)[C@H]2C)cc1 ? 1.15

Bench note: what z-score did CC(C)C[C@@H]1NC(=O)CNC(=O)[C@@]23C(=O)N[C@@H](Cc4ccccc4)C2[C@H](C)[C@@]2(C)O[C@H]2C3/C=C/C/C=C\CNC1=O (some centres not stated) show? -0.461

I'd like to know its z-score. The compound in question is C=CCC(OC(C)=O)[C@@H]1[C@@H](N(Cc2ccc(-c3cccc(C(F)(F)F)c3)o2)C(=O)c2cccc3ccccc23)c2cc(OCCCO)ccc2N1C(=O)Cc1ccc(OC)cc1 (some centres not stated) 0.776

Suppose we examine the compound COc1cc(NN2C(C(O)C3CCCCC3)C=CC3C(=O)N(c4ccccc4)C(=O)C32)cc(OC)c1OC (configuration not stated) ; what z-score value has been reported? -1.24

For the compound shown here, CO[C@H]1O[C@H](CO)[C@@H](OC(=O)c2ccc(Br)cc2)[C@@H]2OC(=O)[C@H](Cc3ccccc3)C/C=C/C[C@@H](Cc3ccccc3)C(=O)O[C@@H]12 , give the reported z-score. 2.14

Need z-score of COC(=O)[C@@]1(Cc2ccc(F)cc2)[C@H]2c3cc(C(=O)N(C)C)n(Cc4c(CO)[nH]cc(C)c4=O)c3C[C@H]2CN1C(=O)c1ccccc1 , thanks. -0.893

I am curious: what z-score value has been reported for COCCCNC(=O)[C@@]1(Sc2ccc(C)cc2)CC(=O)N(Cc2ccccc2Cl)[C@@H]1c1ccc(CO)cc1I ? 0.668

For the compound shown here, COC(=O)[C@@]1(Cc2ccc(OC)cc2)[C@H]2c3cc(C(=O)N4CCCC4)n(Cc4ccc(S(C)(=O)=O)cc4)c3C[C@H]2CN1C(=O)c1ccccc1 , give the reported z-score. -0.247

Can you share its z-score? I mean this compound: CCOC(=O)C1=C[C@@H](C(C)(C)C)N(S(=O)(=O)c2ccc(C)cc2)[C@H]1c1ccccc1 -0.0247

Any idea what its z-score is? The compound is C=C(/C(=C/C[C@H](OC(=O)c1ccncc1)c1ccccc1OCCO)c1cnc2ccccc2c1)C(C)C -0.0584

Any idea what z-score was measured for CN1C(=O)C2C=CC(C(O)c3cc(C(F)(F)F)cc(C(F)(F)F)c3)N(NC(=O)OC(C)(C)C)C2C1=O (configuration not stated) ? -0.0262

Recorded z-score of COCCOC(=O)N1C(=O)[C@@]2(c3cc(C#CC4(O)CCCCCC4)ccc31)[C@H](c1ccc(OCCO)cc1)N1[C@H](c3ccccc3)[C@H](c3ccccc3)OC(=O)[C@H]1[C@@H]2C(=O)Nc1nc2ccccc2s1 , please. 0.11

Item under review: CCOC(=O)C1=CCC(c2ccco2)N(S(=O)(=O)c2ccc(C)cc2)C1 (configuration not stated) . Reported z-score? 0.322

GET /values?readout=z-score&item= C=CCC(OC(C)=O)[C@@H]1[C@@H](N(Cc2ccc(-c3ccccc3)cc2)C(=O)Cc2ccc(F)cc2)c2cc(OCCCO)ccc2N1C(=O)Cc1ccc2ccccc2c1 (some centres not stated) 0.708

Query (compound): COc1ccc(C#Cc2ccc3c(c2)[C@]2(C(=O)N3)[C@H](c3ccc(OCCO)cc3)N3[C@H](c4ccccc4)[C@H](c4ccccc4)OC(=O)[C@H]3[C@@H]2C(=O)N2CCc3cc(OC)c(OC)cc3C2)cc1 ; field requested: z-score 0.0933

Sample COCCCNC(=O)[C@@]1(c2ccc([N+](=O)[O-])cc2)CC(=O)N(CC23CC4CC(CC(C4)C2)C3)[C@@H]1c1ccc(CO)cc1I — what was its z-score? -0.254

Given CCCC=C(CCC)[C@@H](NC(=O)CCc1ccccc1)c1ccc(C(F)(F)F)cc1 , state its recorded z-score. -0.604
